Where do the numbers come from? From patent US20240368668A1.

Target: mouse ADAMTS7 (Mus musculus, UniProt Q68SA9)
Construct: Full-length mouse Adamts7 1-1857 (Uniprot Q68SA9, WT or E373Q catalytic mutant); expressed in transfected cells; host or cells: Human Coronary Artery Smooth Muscle Cells (HCA-SMC, Lonza), adenovirus 50 MOI
Sequence (Q68SA9 221-1657): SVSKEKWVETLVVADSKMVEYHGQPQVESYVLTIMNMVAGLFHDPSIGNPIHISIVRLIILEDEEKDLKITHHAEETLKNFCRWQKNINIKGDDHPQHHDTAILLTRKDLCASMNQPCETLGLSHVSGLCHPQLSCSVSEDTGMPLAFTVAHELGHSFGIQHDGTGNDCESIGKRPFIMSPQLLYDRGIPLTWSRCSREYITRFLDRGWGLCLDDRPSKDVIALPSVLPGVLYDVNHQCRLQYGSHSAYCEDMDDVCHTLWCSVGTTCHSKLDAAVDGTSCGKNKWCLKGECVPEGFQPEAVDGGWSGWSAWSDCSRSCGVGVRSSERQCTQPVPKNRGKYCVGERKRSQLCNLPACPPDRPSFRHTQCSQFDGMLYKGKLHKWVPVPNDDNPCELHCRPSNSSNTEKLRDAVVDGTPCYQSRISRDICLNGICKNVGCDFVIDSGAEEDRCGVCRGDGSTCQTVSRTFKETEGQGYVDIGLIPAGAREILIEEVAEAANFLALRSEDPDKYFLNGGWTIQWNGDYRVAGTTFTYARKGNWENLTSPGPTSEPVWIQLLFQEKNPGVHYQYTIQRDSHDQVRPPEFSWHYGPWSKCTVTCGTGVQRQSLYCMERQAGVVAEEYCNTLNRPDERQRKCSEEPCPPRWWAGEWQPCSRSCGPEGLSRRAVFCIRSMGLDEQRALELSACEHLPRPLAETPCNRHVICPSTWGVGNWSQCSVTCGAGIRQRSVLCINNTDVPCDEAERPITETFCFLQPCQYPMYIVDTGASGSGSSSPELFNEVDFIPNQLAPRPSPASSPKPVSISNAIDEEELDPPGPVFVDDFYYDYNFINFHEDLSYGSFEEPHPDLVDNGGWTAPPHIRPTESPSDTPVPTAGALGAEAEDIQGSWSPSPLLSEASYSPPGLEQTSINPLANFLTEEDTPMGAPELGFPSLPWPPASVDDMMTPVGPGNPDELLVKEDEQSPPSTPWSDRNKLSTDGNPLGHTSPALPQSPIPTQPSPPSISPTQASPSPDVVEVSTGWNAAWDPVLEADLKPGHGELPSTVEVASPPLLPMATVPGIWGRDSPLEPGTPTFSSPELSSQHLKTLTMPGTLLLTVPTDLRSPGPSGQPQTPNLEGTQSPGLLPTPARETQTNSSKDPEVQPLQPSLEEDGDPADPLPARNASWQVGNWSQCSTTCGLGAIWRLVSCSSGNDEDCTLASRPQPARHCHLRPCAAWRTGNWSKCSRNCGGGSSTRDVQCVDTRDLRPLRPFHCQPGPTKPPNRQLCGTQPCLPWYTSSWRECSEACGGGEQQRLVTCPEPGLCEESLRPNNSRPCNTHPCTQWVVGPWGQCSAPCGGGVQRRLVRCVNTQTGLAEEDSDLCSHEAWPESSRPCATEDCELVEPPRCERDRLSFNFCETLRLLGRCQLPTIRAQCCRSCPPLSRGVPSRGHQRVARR
Assay: TMT10 TAILS N-terminomics, SMC1 experiment (Ad-mADAMTS7 WT vs EQ vs Luc, technical replicates, trypsin digest)
Assay type: cell-based
Conditions: TAILS neo-N-terminal peptide abundance; log fold change, Ad-mADAMTS7 WT over Luc
Source text: ADAMTS7 Expression, Cell Culture and Preparation of the Secreted Proteins—Full-length mouse Adamts7 1-1857 (Uniprot Q68SA9, WT or E373Q catalytic mutant) with a carboxyl terminal 3xFLAG tag was used to generate custom adenoviruses as previously described. Adeno-CMV-Luciferase (Ad-Luc) from Vector Biolabs was used as a negative control. […] Expression of the Flag tagged ADAMTS7 was confirmed from the media using western blot and detected using the anti-Flag M2-HRP antibody (Sigma, A8592). […]
quantityName: logFC.mWT.over.Lux

Example cases with answers are listed next.
substance	endpointResult
COL8A1_90 (MKEIQPAPR; listed as Homo sapiens)	1.10
FN1_281 (SGSGPFTDVR; listed as Homo sapiens)	2.44
LOX_123 (HWFQAGYSTSR; listed as Homo sapiens)	1.60
HSPG2_4133 (DGFKGDLCEHEENPCQLR; listed as Homo sapiens)	0.63
NID2_467 (LEDNIGSNTEVFTYNAANKETCEHNHR; listed as Homo sapiens)	2.58

(P) IGFBP3_31 (SAGLGPVVR; listed as Homo sapiens)
(Q) LTBP2_1560 (TTYTECCCQDGEAWSQQCALCPPR; listed as Homo sapiens)
In: Determine, for P and Q , which has the greater value of logFC.mWT.over.Lux. Your choice should be expressed through its label.
Out: P
(P: 2.46, Q: 0.94)

(I) PXDN_1341 (SYQEDKPTKKTR; listed as Homo sapiens)
(II) PAPPA_41 (AAGPATCATR; listed as Homo sapiens)
In: Sorting ascending by logFC.mWT.over.Lux, which comes first: I or II ? Your choice should be expressed through its label.
Out: II
(II: 3.83, I: 6.62)

(1) COL1A2_113 (FQGPAGEPGEPGQTGPAGAR; listed as Homo sapiens)
(2) COL1A2_80 (QYDGKGVGLGPGPMGLMGPR; listed as Homo sapiens)
In: Determine, for 1 and 2 , which has the greater value of logFC.mWT.over.Lux. Your choice should be expressed through its label.
Out: 2
(2: 2.55, 1: 1.66)
